- Tested on: Acinetobacter baumannii ATCC17961
- Test method notes: Antimicrobial susceptibility testing: 90% growth inhibitory concentration (IC90) determination, Iso-Sensitest broth
- Format: cell-based
- Cond: Acinetobacter baumannii, ATCC17961, 16 h, 90% growth inhibitory concentration, Acinetobacter baumannii ATCC17961, Iso-Sensitest broth, OD 600 nm over 16 h; read-out: ATCC17961 IC90
- Method: Antimicrobial Susceptibility Testing: 90% Growth Inhibitory Concentration (IC90) Determination The in vitro antimicrobial activity of the compounds was determined according to the following procedure: The assay used a 10-points Iso-Sensitest broth medium to measure quantitatively the in vitro activity of the compounds against Acinetobacter baumannii ATCC17978 and Acinetobacter baumannii ATCC17961. […]
Structures can show the parent of a compound that is named as a salt.
Note to self: class = bucket of IC90, per bottom = under 50 nM, middle = from 50 nM up to 100 nM, top = 100 nM and over

Use these answered entries as a reference point.
compound="C#CCOc1ccc(-c2cnc3c(Nc4ccc(C(=O)N5CCN(C(=O)[C@@H]6C[C@@H](O)CN6)CC5)c(C)c4)nccn23)c(F)c1F [Example 248]" target_entity="Acinetobacter baumannii ATCC17961" class_assignment=middle
compound="COc1ccc(-c2cnc3c(Nc4ccc(C(=O)N5CCN(C(=O)[C@]6(O)CNCC[C@H]6O)CC5)c(C)c4)nccn23)c(F)c1F (relative stereo) [Example 236]" target_entity="Acinetobacter baumannii ATCC17961" class_assignment=middle

-- ask Input Cc1cc(Nc2nccn3c(-c4ccc(OC(F)F)cc4)cnc23)ccc1C(=O)N1CCN(C(=O)OC(C)(C)C)CC1 [Example 556] ; output its category
-- reply top

-- ask Hello team, could you let me know which band the following compound falls into: C#CCOc1ccc(-c2cnc3c(Nc4ccc(C(=O)N5CCC(CN)CC5)c(C)c4)nccn23)c(F)c1F [Example 121, formic acid]
-- reply bottom

-- ask Could you tell me which band Cc1cc(Nc2nccn3c(-c4ccc(OCC#N)c(F)c4Cl)cnc23)ccc1C(=O)N1CCN(C(=O)NCCN)CC1 [Example 159, formate] belongs to?
-- reply bottom
